- testDescription: Inhibitory concentration was determined against delta-opioid receptor using [3H]- DPDPE radioligand
measuredQuantity: IC50 (nM)

| molecule | numericResult |
| --- | --- |
| Oc1ccc2c3c1O[C@H]1[C@H](OCc4ccc(N=C=S)cc4)CC[C@@]4(O)C(C2)N(CC2CC2)CCC314 (stereo not given in full) | 35 |
| Oc1ccc2c3c1O[C@H]1[C@H](OCc4ccccc4CN=C=S)CC[C@@]4(O)C(C2)N(CC2CC2)CCC314 (stereo not given in full) | 22 |
| Oc1ccc2c3c1O[C@H]1[C@H](OCc4cccc(CN=C=S)c4)CC[C@@]4(O)C(C2)N(CC2CC2)CCC314 (stereo not given in full) | 12 |
| Oc1ccc2c3c1O[C@H]1[C@H](OCc4cccc(N=C=S)c4)CC[C@@]4(O)C(C2)N(CC2CC2)CCC314 (stereo not given in full) | 6.5 |
| Oc1ccc2c3c1O[C@H]1[C@H](OCc4ccccc4N=C=S)CC[C@@]4(O)C(C2)N(CC2CC2)CCC314 (stereo not given in full) | 1.8 |
